Source listed as paper PMC11643494.

Target: Human A934T SLACK (Homo sapiens, UniProt Q5JUK3, A915T)
Sequence (Q5JUK3 1-1235 isoform Q5JUK3-3 A934T): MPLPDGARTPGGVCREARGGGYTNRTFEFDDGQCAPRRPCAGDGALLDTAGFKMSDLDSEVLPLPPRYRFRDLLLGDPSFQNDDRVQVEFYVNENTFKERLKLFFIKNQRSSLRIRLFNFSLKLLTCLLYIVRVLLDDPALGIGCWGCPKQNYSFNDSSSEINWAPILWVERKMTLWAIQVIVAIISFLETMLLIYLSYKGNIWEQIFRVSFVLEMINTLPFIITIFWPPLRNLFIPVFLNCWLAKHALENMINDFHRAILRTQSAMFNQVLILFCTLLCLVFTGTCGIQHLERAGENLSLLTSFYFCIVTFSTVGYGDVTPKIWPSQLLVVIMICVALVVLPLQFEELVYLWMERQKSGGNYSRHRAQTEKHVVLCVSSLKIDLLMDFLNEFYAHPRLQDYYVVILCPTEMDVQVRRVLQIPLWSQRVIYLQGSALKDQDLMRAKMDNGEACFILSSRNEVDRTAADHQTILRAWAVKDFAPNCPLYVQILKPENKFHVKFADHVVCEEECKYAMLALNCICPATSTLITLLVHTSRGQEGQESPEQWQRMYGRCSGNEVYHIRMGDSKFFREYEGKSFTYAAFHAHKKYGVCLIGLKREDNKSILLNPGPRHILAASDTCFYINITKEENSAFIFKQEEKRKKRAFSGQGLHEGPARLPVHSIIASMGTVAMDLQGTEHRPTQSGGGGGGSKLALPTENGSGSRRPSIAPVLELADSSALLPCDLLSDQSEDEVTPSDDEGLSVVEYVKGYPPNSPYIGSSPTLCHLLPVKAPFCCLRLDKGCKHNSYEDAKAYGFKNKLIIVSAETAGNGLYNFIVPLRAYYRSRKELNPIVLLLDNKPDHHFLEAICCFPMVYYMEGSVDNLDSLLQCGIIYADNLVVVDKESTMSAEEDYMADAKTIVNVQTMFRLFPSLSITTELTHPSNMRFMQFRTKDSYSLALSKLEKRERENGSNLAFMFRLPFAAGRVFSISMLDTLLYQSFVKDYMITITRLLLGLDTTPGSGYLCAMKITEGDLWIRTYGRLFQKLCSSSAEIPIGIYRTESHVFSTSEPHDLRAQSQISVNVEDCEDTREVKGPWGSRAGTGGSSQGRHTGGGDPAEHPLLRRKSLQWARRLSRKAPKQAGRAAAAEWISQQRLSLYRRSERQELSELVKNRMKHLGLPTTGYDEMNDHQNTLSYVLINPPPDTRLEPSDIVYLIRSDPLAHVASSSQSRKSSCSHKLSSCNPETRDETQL
Assay: Whole-cell APC in CHO-K1 cells stably expressing human A934T SLACK
Settings: APC, CHO-K1 cells
# IC50 values compiled below
Respond with the bare value in µM.

STRUCTURE STRING	RESULT UNITS	IC50
CN(c1ccc(C#N)cc1)c1ncc(NC(=O)C(C)(C)Oc2ccc(Cl)cc2)cn1	µM	1.2

Query: Notebook: pull reported IC50 for Human A934T SLACK (Homo sapiens, UniProt Q5JUK3, A915T), entry CC(C)(Oc1ccc(Cl)cc1)C(=O)Nc1cnc(Oc2c(F)cccc2F)nc1
Reply: 0.41

----------
Target: WT human SLACK (Homo sapiens, UniProt Q5JUK3)
Construct: host or cells: CHO-K1
Sequence (Q5JUK3 1-1235 isoform Q5JUK3-3): as the sequence (Q5JUK3 1-1235 isoform Q5JUK3-3 A934T) above, with T934A counted along it
Experiment: Whole-cell automated patch clamp (APC) in CHO-K1 cells stably expressing WT human SLACK
Assay type: cell-based
Conditions: maximum inhibition at 30 µM test compound standardized to VU0606170 (set at 100%); WT human SLACK
QUANTITY KIND: SLACK Imax (%)
Respond with the bare value in %.

COMPOUND	SLACK Imax [%]
CC(C)(Oc1ccc(Cl)cc1)C(=O)Nc1cnc(Sc2ccccc2F)nc1 [Analog 63]	101
CC(C)(Oc1ccc(Cl)cc1)C(=O)Nc1cnc(Oc2ccc(C(N)=O)cc2)nc1 [Analog 37]	110
COc1cccc(Oc2ncc(NC(=O)C(C)(C)Oc3ccc(Cl)cc3)cn2)c1 [Analog 28]	101
CC(C)(Oc1ccc(Cl)cc1)C(=O)Nc1cnc(Oc2c(F)cccc2Cl)nc1 [Analog 43]	91
Cc1ccc(OC(C)(C)C(=O)Nc2cnc(Oc3ccccc3F)nc2)cc1 [Analog 52]	97
COc1ccccc1Oc1ncc(NC(=O)C(C)(C)Oc2ccc(Cl)cc2)cn1 [Analog 27]	101

Query: Which SLACK Imax is reported for this compound? CN(Cc1ccc(Cl)cc1)C(=O)Nc1cnc(Oc2ccccc2F)nc1 [Analog 82]
Reply: 79

Query: Which SLACK Imax is reported for this compound? CC(C)(Oc1ccc(Cl)cc1)C(=O)Nc1cnc(Oc2c(F)cccc2F)nc1 [Analog 40]
Reply: 98

Query: Which SLACK Imax is reported for this compound? O=C(CCc1ccc(Cl)cc1)Nc1cnc(Oc2ccccc2F)nc1 [Analog 74]
Reply: 102

Query: Which SLACK Imax is reported for this compound? CC(C)(Oc1ccc(Cl)cc1)C(=O)Nc1ccc(Oc2ccccc2F)cc1 [Analog 88]
Reply: 92

Query: Which SLACK Imax is reported for this compound? CC(C)(Oc1cccc(OC(F)(F)F)c1)C(=O)Nc1cnc(Oc2ccccc2F)nc1 [Analog 57]
Reply: 98

----------
Biological target: WT human SLACK (Homo sapiens, UniProt Q5JUK3)
Construct: host or cells: CHO-K1
Experiment: Whole-cell automated patch clamp (APC) in CHO-K1 cells stably expressing WT human SLACK
Format: cell-based
Settings: maximum inhibition at 30 µM test compound standardized to VU0606170 (set at 100%); WT human SLACK
# SLACK Imax values compiled below
Respond with the bare value in %.

Query: Which SLACK Imax is reported for this compound? CC(C)(Oc1ccc(OC(F)(F)F)cc1)C(=O)Nc1cnc(Oc2ccccc2F)nc1
Reply: 104

----------
Biological target: WT human SLACK (Homo sapiens, UniProt Q5JUK3)
Construct: host or cells: CHO-K1
Experiment: Whole-cell automated patch clamp (APC) in CHO-K1 cells stably expressing WT human SLACK
Assay type: cell-based
Conditions: maximum inhibition at 30 µM test compound standardized to VU0606170 (set at 100%); WT human SLACK
QUANTITY KIND: SLACK Imax (%)
Respond with the bare value in %.

STRUCTURE STRING	SLACK Imax / %
CC(C)(Oc1ccccc1)C(=O)Nc1cnc(Oc2ccccc2F)nc1	66
CC(C)(Oc1ccccc1F)C(=O)Nc1cnc(Oc2ccccc2F)nc1	25
CC(C)(Oc1ccc(Cl)cc1)C(=O)Nc1cnc(Oc2ccc(F)cc2F)nc1	101
CC(C)(Oc1ccc(C(F)(F)F)cc1)C(=O)Nc1cnc(Oc2ccccc2F)nc1	101
CC(C)(Oc1ccc(Cl)cc1)C(=O)Nc1cnc(Oc2cc(F)ccc2F)nc1	101

Query: Which SLACK Imax is reported for this compound? CC(C)(Oc1ccc(Cl)cc1)C(=O)Nc1cnc(Oc2ccc(F)cc2)nc1
Reply: 102
